All figures here come from patent US7560569B2.

target: plasma dipeptidylpeptidase IV (UniProt P27487); test: In vitro dipeptidylpeptidase IV inhibition (H-Gly-Pro-AMC hydrolysis, fluorometry); settings: plasma diluted 8-fold, H-Gly-Pro-AMC.HBr substrate, room temperature 20 minutes
Answer each item with its documented IC50.
The reply should be a number in pM, with the unit left off.

(Q) What IC50 value was documented for this compound, "N#C[C@@H]1C[C@H](F)CN1C(=O)CNC12CCC(C(=O)N3CC[C@@H](F)C3)(CC1)CC2" ?
(A) 82

(Q) // next record "N#C[C@@H]1C[C@H](F)CN1C(=O)CNC12CCC(C(N)=O)(CC1)CC2"
(A) 890

(Q) Same for "C=CCNC(=O)C12CCC(NCC(=O)N3C[C@@H](F)C[C@H]3C#N)(CC1)CC2"
(A) 57

(Q) Moving on to "CN1CCN(C(=O)C23CCC(NCC(=O)N4C[C@@H](F)C[C@H]4C#N)(CC2)CC3)CC1"
(A) 830
